The entries below are paired with their reported pEC50 hGLPR1.
experimental system: human GLP-1 receptor (hGLP1R) (human, UniProt P43220 24-463)
assay protocol: cell-based or functional assay
Numbered stars: 1 amine (or outer) side, 2 acyl side, 3 side chain; on linkers, the order of the positions; unused ones are H or OH. Square brackets hold non-standard residues; d marks the D form. Side chains are listed from the residue outwards. Ends that are not written are not given here. * marks the point of attachment. C20 diacid = O=C(O)CCCCCCCCCCCCCCCCCCC(=O)*; γGlu = O=C(O)[C@H](CCC(=O)[*:2])N[*:1]; AEEA = NCCOCCOCC(=O)O; Aib = CC(C)(N)C(=O)O
experimental endpoint: pEC50 hGLPR1

binder	endpoint result
H[Aib]EGTFTSDYSYLK([AEEA-AEEA-γGlu-C20 diacid])EEA[Aib]LQRFLEHLV-NH2 [SEQ ID NO: 196]	10.9 -log M
H[Aib]EGTFTSDVSRLK([AEEA-AEEA-γGlu-C20 diacid])ETAAQQRFLEHLV-NH2 [SEQ ID NO: 21]	10.9 -log M
H[Aib]EGTFTSDVSFLK([AEEA-AEEA-γGlu-C20 diacid])ETAAAQRFLEHLV-NH2 [SEQ ID NO: 44]	10.5 -log M
H[Aib]EGTFTSDVSELK([AEEA-AEEA-γGlu-C20 diacid])E[Aib]AAEQRFLEHLV-NH2 [SEQ ID NO: 18]	10.5 -log M
H[Aib]EGTFTSDVSYLKE[Aib]AAQQRFLEHLV-NH2 (not fully specified (residue 14)) [SEQ ID NO: 94]	11 -log M
